conditions: 308.15 K; 101 kPa; Liquid
readout.type: viscosity (mPa·s)
# output: bare number, implied unit mPa·s

-- ask Can you share its viscosity? I mean this compound: c1ccccc1 [benzene]
-- reply 0.5272

-- ask I have this compound here, C1CCCCCCC1 [cyclooctane] , and I need its recorded viscosity.
-- reply 1.803

-- ask Would you mind telling me what viscosity value was observed for CCc1ccccc1 [ethylbenzene] ?
-- reply 0.5652

-- ask Consider the compound Cc1ccccc1 [toluene] and give its measured viscosity.
-- reply 0.494

-- ask What value of viscosity has been reported for the following compound? CCCCCCC [heptane]
-- reply 0.3497

---

conditions: 313.15 K; 101 kPa; Liquid; Vibrating tube method
Numbers after ± are expanded uncertainties.
Can you tell me mass density for the items I'm about to list?
A bare number is not enough; add the unit after it.

-- ask Can you look up the measured mass density of C1CCCCCCC1 for me?
-- reply 819.7 ± 0.2 kg/m3

-- ask Need mass density, item CCCCCCC
-- reply 667.1 ± 0.3 kg/m3

-- ask Report mass density for c1ccccc1 please.
-- reply 857.7 ± 0.2 kg/m3

-- ask Need mass density, item Cc1ccccc1
-- reply 848.3 ± 0.2 kg/m3

-- ask Param item = CCc1ccccc1 ; retrieve measured mass density.
-- reply 849.5 ± 0.2 kg/m3
